Origin of measurements: patent US20230365592A1

Target: human PAH with the R408W mutation (Homo sapiens, UniProt P00439, R408W)
Construct: expressed in transfected cells
Sequence (P00439 whole entry R408W): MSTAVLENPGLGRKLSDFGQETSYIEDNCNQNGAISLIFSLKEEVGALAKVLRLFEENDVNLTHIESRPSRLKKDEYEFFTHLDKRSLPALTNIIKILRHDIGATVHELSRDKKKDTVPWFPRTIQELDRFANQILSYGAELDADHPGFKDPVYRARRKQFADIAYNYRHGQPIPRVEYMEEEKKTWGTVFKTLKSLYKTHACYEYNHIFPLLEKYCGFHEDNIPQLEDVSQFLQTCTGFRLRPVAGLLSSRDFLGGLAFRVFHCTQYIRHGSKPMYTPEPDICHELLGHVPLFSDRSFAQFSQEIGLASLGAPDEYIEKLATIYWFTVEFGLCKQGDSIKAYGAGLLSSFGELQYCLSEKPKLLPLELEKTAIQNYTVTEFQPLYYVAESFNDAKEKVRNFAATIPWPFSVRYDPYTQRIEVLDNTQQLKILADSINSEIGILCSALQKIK
Experiment: Cell Based Phenylalanine Flux Assay;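 also: after compound treatment, cells received sepiapterin plus isotope-labelled Phenylalanine for 4 hours, then labelled Tyrosine in the medium was quantified, 10-point 2-fold dilution series run in duplicate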
Details: A375 cells expressing human PAH R408W; 24 hrs compound incubation; 13C-Tyrosine by LC-MS; average where tested multiple times; read-out: AC50
Known AC50 of a selection of compounds
measurement_type: AC50

Cc1ccn2nc([C@H]3c4nc[nH]c4CCN3C(=O)c3nnc(-c4ccccn4)o3)cc2c1 :: > 5 µM
O=C(c1cnn2cc(C3CC3)ccc12)N1CCc2[nH]cnc2[C@H]1c1cc2cccc(C(F)F)n2n1 :: 1 to 5 µM
Cn1cc(-c2nnc(C(=O)N3CCc4[nH]cnc4[C@H]3c3cc4ccc(Br)cn4n3)o2)cn1 :: 1 to 5 µM
Fc1cccnc1-c1nnc(N2CCc3[nH]cnc3[C@H]2c2cc3c(F)cccn3n2)o1 :: < 0.5 µM
Cc1cccn2nc([C@@H]3c4nc[nH]c4CCN3c3nnc(C4(C)CC4)o3)cc12 :: 0.5 to 1 µM
O=C(c1cnc(-c2ccccn2)o1)N1CCc2[nH]cnc2[C@@H]1c1cc2c(F)cccn2n1 :: > 5 µM
c1ccc(N2CCc3[nH]cnc3[C@@H]2c2cc3ccccn3n2)nc1 :: > 5 µM
O=C(c1ncco1)N1CCc2[nH]cnc2[C@@H]1c1cc2c(C(F)F)cccn2n1 :: > 5 µM
